# procedure.summary: Tmax in rat at 3 mg/kg, po
# Assay type: ADME, organism-based
# Design: dose 3 mg/kg, route oral
# settings: in vivo
assay.metric: Tmax (min)
Only the number, expressed in min, is required.

Identify measured Tmax associated with `COCCOc1ccc(N2CCN(CCn3ncc4c3nc(N)n3nc(-c5ccco5)nc43)CC2)cc1.Cl`
15

====

# procedure.summary: Oral bioavailability in rat at 3 mg/kg
# Assay type: ADME, organism-based
# settings: in vivo
assay.metric: bioavailability
Provide a numeric answer, followed by its unit.

Identify measured bioavailability associated with `COCCOc1ccc(N2CCN(CCn3ncc4c3nc(N)n3nc(-c5ccco5)nc43)CC2)cc1.Cl`
57%
